- target_or_system: dephosphorylated FGFR1 (SEQ ID NO: 1, amino acids 458 to 765) (Homo sapiens (Human))
- Sequence (P11362 458-765): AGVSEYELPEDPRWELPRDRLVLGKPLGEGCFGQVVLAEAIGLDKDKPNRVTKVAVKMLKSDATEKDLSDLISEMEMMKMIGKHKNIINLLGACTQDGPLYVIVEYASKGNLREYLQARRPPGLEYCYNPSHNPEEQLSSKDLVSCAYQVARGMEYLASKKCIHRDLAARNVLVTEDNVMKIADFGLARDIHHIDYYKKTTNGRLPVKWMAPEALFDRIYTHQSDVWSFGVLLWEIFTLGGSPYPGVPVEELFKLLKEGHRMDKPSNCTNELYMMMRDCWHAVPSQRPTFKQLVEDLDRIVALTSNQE
- test_protocol: FGFR enzyme binding assay (HTRF tracer displacement), FGFR1
- experimental_conditions: 5 nM dephosphorylated FGFR1, average of multiple determinations if made
pIC50: −log10 of the molar value.
measurement_name: pIC50

IN: For the compound C=CC(=O)N[C@H]1CC[C@@H](C(=O)N2CCC(n3cc(-c4cc(OC)c5c(C#N)cnn5c4)cn3)CC2)CC1 [Example 20] , give its measured pIC50 value.
OUT: 7.03

IN: For the compound C=CC(=O)N1CCC[C@H](C(=O)N2CCC(n3cc(-c4cc(OC)c5c(C#N)cnn5c4)cn3)CC2)C1 [Example 16] , give its measured pIC50 value.
OUT: 7.51

IN: For the compound C=CC(=O)N1CC(CN2CCC(n3ncc(-c4cc(OC)c5c(Cl)cnn5c4)c3C)CC2)C1 [Example 118] , give its measured pIC50 value.
OUT: 6.34

a = COc1cc(-c2cnn(C3CN(C(=O)C4(F)CN(C(=O)/C=C/CN(C)C)C4)C3)c2C)cn2ncc(C#N)c12 [Example 160]
b = CCc1c(-c2cc(OC)c3c(C#N)cnn3c2)cnn1C1CCN(C(=O)C2(F)CN(C(=O)/C=C/CN(C)C)C2)CC1 [Example 162]
c = C=CC(=O)N1CC(C(=O)N2CCN(c3cnc(-c4cc(OC)c5c(C#N)cnn5c4)cn3)CC2)C1 [Example 116]
d = C=CC(=O)N1CCN(C(=O)N2CCC(n3cc(-c4cc(OC)c5c(C#N)cnn5c4)cn3)CC2)C[C@@H]1CC#N [Example 135]
IN: Rank by pIC50 (largest to smallest). Your task in answering is to list the labels in the requested order.
OUT: d, c, a, b
(d: 7.46, c: 6.85, a: 6.24, b: 5.76)

I = C=CC(=O)N1CC(C(=O)N2CC[C@H](n3cc(-c4cc(OC)c5c(C#N)cnn5c4)cn3)C2)C1 [Example 73]
II = COc1cc(-c2cnn(C3CCN(C(=O)C4CN(C(=O)C#CCN(C)C)C4)CC3)c2)cn2ncc(C#N)c12 [Example 176]
IN: Parameter check: reported pIC50 is higher for which label, I or II ? Write down the label of the entry you select.
OUT: I
(I: 7.24, II: 6.87)

###

- target_or_system: recombinant human FGFR1 catalytic domain (amino acids 308-731) (Homo sapiens (Human))
- Sequence (P11362 other isoform, or with tags, fused parts or gaps): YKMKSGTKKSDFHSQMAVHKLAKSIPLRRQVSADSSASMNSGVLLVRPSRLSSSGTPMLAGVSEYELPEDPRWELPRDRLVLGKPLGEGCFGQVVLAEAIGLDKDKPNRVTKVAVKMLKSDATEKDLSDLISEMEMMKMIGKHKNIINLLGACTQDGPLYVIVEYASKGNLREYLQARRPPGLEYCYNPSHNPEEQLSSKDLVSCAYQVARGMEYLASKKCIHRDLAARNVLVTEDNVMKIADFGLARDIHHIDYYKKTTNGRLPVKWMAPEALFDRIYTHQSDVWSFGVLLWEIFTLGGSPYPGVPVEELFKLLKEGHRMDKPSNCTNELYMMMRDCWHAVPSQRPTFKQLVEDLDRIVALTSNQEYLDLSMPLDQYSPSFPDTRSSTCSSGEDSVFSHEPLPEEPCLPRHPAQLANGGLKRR
- test_protocol: FGFR1 enzyme activity assay (LanthaScreen TR-FRET)
- experimental_conditions: 20 min incubation at 22° C., average of multiple determinations if made, read-out: FGFR1 Enz FRET IC50
pIC50: −log10 of the molar value.
measurement_name: pIC50

IN: For the molecule "COc1cc(-c2cnn(C3CCN(C(=O)C4CN(C(=O)C#CCN(C)C)C4)CC3)c2)cn2ncc(C#N)c12" , give its measured pIC50 value.
OUT: 5.92

I = C=CC(=O)N1CC(CN2CCC(n3ncc(-c4cc(OC)c5c(C#N)cnn5c4)c3C)CC2)C1(C)C (stereo not shown)
II = C=CC(=O)N[C@H]1C[C@H](C(=O)N2CC(n3cc(-c4cc(OC)c5c(C#N)cnn5c4)cn3)C2)C1
IN: Parameter check: reported pIC50 is higher for which label, I or II ? Write down the label of the entry you select.
OUT: II
(II: 7.44, I: 7.07)
